- Tested on: Klebsiella aerogenes ATCC 13048
- Format: cell-based
- Cond: ATCC 13048, 18 h
Where a SMILES comes first, the peptide text is derived from it. The star is where a group is joined. Butanoyl(4-Ph) = O=C(CCCc1ccccc1)*; X2 = O=C(C#Cc1ccccc1)*
Assay Endpoint: MIC K. aerogenes (µg/mL)
State the answer as a number, implicitly in µg/mL.

• CC[C@H](C)[C@H](NC(=O)[C@H](CCCNC(=N)N)NC(=O)[C@H](CCC(N)=O)NC(=O)[C@@H](NC(=O)[C@@H](NC(=O)[C@H](CCCNC(=N)N)NC(=O)[C@H](CCCCN)NC(=O)C#Cc1ccccc1)[C@@H](C)CC)C(C)C)C(=O)N[C@@H](CCCCN)C(=O)N[C@@H](CC(=O)O)C(=O)N[C@@H](Cc1ccccc1)C(=O)N[C@@H](CC(C)C)C(=O)N[C@@H](CCCNC(=N)N)C(N)=O [XX, Phenylpropiolic acid-KR12-NH2] (X2-KRIVQRIKDFLR-NH2) = 16

// below: MIC K. aerogenes requested for another molecule
### Prompt Which MIC K. aerogenes value belongs to CC[C@H](C)[C@H](NC(=O)[C@H](CCCNC(=N)N)NC(=O)[C@H](CCC(N)=O)NC(=O)[C@@H](NC(=O)[C@@H](NC(=O)[C@H](CCCNC(=N)N)NC(=O)[C@H](CCCCN)NC(=O)CCCc1ccccc1)[C@@H](C)CC)C(C)C)C(=O)N[C@@H](CCCCN)C(=O)N[C@@H](CC(=O)O)C(=O)N[C@@H](Cc1ccccc1)C(=O)N[C@@H](CC(C)C)C(=O)N[C@@H](CCCNC(=N)N)C(N)=O [XVIII, 4-Phenylbutanoic acid-KR12-NH2] ({Butanoyl(4-Ph)}-KRIVQRIKDFLR-NH2) ?
### Response 32

----------
- Test system: S. aureus ATCC 33591 (MRSA)
- Format: cell-based, Staphylococcus aureus
- Cond: ATCC 33591, 18 h
Where a SMILES comes first, the peptide text is derived from it. The star is where a group is joined. Octanoyl = CCCCCCCC(=O)*; X4 = O=C(/C=C/c1ccccc1)*
This listing pairs molecules with measured MIC S. aureus 33591.
State the answer as a number, implicitly in µg/mL.

* CCCCCCCC(=O)NCCCC[C@H](N)C(=O)N[C@@H](CCCCN)C(=O)N[C@@H](CCCNC(=N)N)C(=O)N[C@H](C(=O)N[C@H](C(=O)N[C@@H](CCC(N)=O)C(=O)N[C@@H](CCCNC(=N)N)C(=O)N[C@H](C(=O)N[C@@H](CCCCN)C(=O)N[C@@H](CC(=O)O)C(=O)N[C@@H](Cc1ccccc1)C(=O)N[C@@H](CC(C)C)C(=O)N[C@@H](CCCNC(=N)N)C(N)=O)[C@@H](C)CC)C(C)C)[C@@H](C)CC [V, C8^ε-Lys-KR12-NH2] (H-K(Octanoyl)KRIVQRIKDFLR-NH2) | 64

### Prompt Which MIC S. aureus 33591 value belongs to CC[C@H](C)[C@H](NC(=O)[C@H](CCCNC(=N)N)NC(=O)[C@H](CCC(N)=O)NC(=O)[C@@H](NC(=O)[C@@H](NC(=O)[C@H](CCCNC(=N)N)NC(=O)[C@H](CCCCN)NC(=O)/C=C/c1ccccc1)[C@@H](C)CC)C(C)C)C(=O)N[C@@H](CCCCN)C(=O)N[C@@H](CC(=O)O)C(=O)N[C@@H](Cc1ccccc1)C(=O)N[C@@H](CC(C)C)C(=O)N[C@@H](CCCNC(=N)N)C(N)=O [XIX, trans-cinnamic acid-KR12-NH2] (X4-KRIVQRIKDFLR-NH2) ?
### Response 8

----------
- Tested on: Klebsiella aerogenes ATCC 13048
- Format: cell-based
- Cond: ATCC 13048, 18 h
Where a SMILES comes first, the peptide text is derived from it. The star is where a group is joined. Octanoyl = CCCCCCCC(=O)*; X4 = O=C(/C=C/c1ccccc1)*; X3 = CCCCC(CC)C(=O)*
Hi! Just check whether MIC K. aerogenes is below 60 µg/mL. Below gives yes, equal or above gives no.

* CC[C@H](C)[C@H](NC(=O)[C@H](CCCNC(=N)N)NC(=O)[C@H](CCC(N)=O)NC(=O)[C@@H](NC(=O)[C@@H](NC(=O)[C@H](CCCNC(=N)N)NC(=O)[C@H](CCCCN)NC(=O)/C=C/c1ccccc1)[C@@H](C)CC)C(C)C)C(=O)N[C@@H](CCCCN)C(=O)N[C@@H](CC(=O)O)C(=O)N[C@@H](Cc1ccccc1)C(=O)N[C@@H](CC(C)C)C(=O)N[C@@H](CCCNC(=N)N)C(N)=O [XIX, trans-cinnamic acid-KR12-NH2] (X4-KRIVQRIKDFLR-NH2) | yes

### Prompt # TODO verify MIC K. aerogenes < 60 µg/mL strictly for this compound: CCCCCCCC(=O)NCCCC[C@H](NC(=O)CCCCCCC)C(=O)N[C@@H](CCCNC(=N)N)C(=O)N[C@H](C(=O)N[C@H](C(=O)N[C@@H](CCC(N)=O)C(=O)N[C@@H](CCCNC(=N)N)C(=O)N[C@H](C(=O)N[C@@H](CCCCN)C(=O)N[C@@H](CC(=O)O)C(=O)N[C@@H](Cc1ccccc1)C(=O)N[C@@H](CC(C)C)C(=O)N[C@@H](CCCNC(=N)N)C(N)=O)[C@@H](C)CC)C(C)C)[C@@H](C)CC [IX, C8^α,C8^ε-KR12-NH2] (Octanoyl-K(Octanoyl)RIVQRIKDFLR-NH2)
### Response no

### Prompt # TODO verify MIC K. aerogenes < 60 µg/mL strictly for this compound: CCCCC(CC)C(=O)N[C@@H](CCCCN)C(=O)N[C@@H](CCCNC(=N)N)C(=O)N[C@H](C(=O)N[C@H](C(=O)N[C@@H](CCC(N)=O)C(=O)N[C@@H](CCCNC(=N)N)C(=O)N[C@H](C(=O)N[C@@H](CCCCN)C(=O)N[C@@H](CC(=O)O)C(=O)N[C@@H](Cc1ccccc1)C(=O)N[C@@H](CC(C)C)C(=O)N[C@@H](CCCNC(=N)N)C(N)=O)[C@@H](C)CC)C(C)C)[C@@H](C)CC (stereo partly drawn) [XIV, 2-Ethylhexanoic acid-KR12-NH2] (X3-KRIVQRIKDFLR-NH2)
### Response yes

----------
- System: Klebsiella aerogenes ATCC 13048
- Assay type: cell-based
- Cond: ATCC 13048, 18 h
Where a SMILES comes first, the peptide text is derived from it. The star is where a group is joined. Octanoyl = CCCCCCCC(=O)*; Butyryl = CCCC(=O)*
This listing pairs molecules with measured MIC K. aerogenes.
State the answer as a number, implicitly in µg/mL.

Below, each entry is followed by its recorded MIC K. aerogenes result.
* CCCCCCCC(=O)NCCCC[C@H](NC(=O)[C@H](CCCNC(=N)N)NC(=O)[C@H](CC(C)C)NC(=O)[C@H](Cc1ccccc1)NC(=O)[C@H](CC(=O)O)NC(=O)[C@H](CCCCN)NC(=O)[C@@H](NC(=O)[C@H](CCCNC(=N)N)NC(=O)[C@H](CCC(N)=O)NC(=O)[C@@H](NC(=O)[C@@H](NC(=O)[C@H](CCCNC(=N)N)NC(=O)[C@@H](N)CCCCN)[C@@H](C)CC)C(C)C)[C@@H](C)CC)C(N)=O [VI, KR12-Lys^ε(C8)-NH2] (H-KRIVQRIKDFLRK(Octanoyl)-NH2) | 64
* CCCC(=O)NCCCC[C@H](NC(=O)CCC)C(=O)N[C@@H](CCCNC(=N)N)C(=O)N[C@H](C(=O)N[C@H](C(=O)N[C@@H](CCC(N)=O)C(=O)N[C@@H](CCCNC(=N)N)C(=O)N[C@H](C(=O)N[C@@H](CCCCN)C(=O)N[C@@H](CC(=O)O)C(=O)N[C@@H](Cc1ccccc1)C(=O)N[C@@H](CC(C)C)C(=O)N[C@@H](CCCNC(=N)N)C(N)=O)[C@@H](C)CC)C(C)C)[C@@H](C)CC [X, C4^α, C4^ε-KR12-NH2] (Butyryl-K(Butyryl)RIVQRIKDFLR-NH2) | 256
* CCCCCCCC(=O)NCCCC[C@H](N)C(=O)N[C@@H](CCCNC(=N)N)C(=O)N[C@H](C(=O)N[C@H](C(=O)N[C@@H](CCC(N)=O)C(=O)N[C@@H](CCCNC(=N)N)C(=O)N[C@H](C(=O)N[C@@H](CCCCN)C(=O)N[C@@H](CC(=O)O)C(=O)N[C@@H](Cc1ccccc1)C(=O)N[C@@H](CC(C)C)C(=O)N[C@@H](CCCNC(=N)N)C(N)=O)[C@@H](C)CC)C(C)C)[C@@H](C)CC [III, C8^ε-KR12-NH2] (H-K(Octanoyl)RIVQRIKDFLR-NH2) | 64
* CCCCCCCC(=O)N[C@@H](CCCCN)C(=O)N[C@@H](CCCNC(=N)N)C(=O)N[C@H](C(=O)N[C@H](C(=O)N[C@@H](CCC(N)=O)C(=O)N[C@@H](CCCNC(=N)N)C(=O)N[C@H](C(=O)N[C@@H](CCCCN)C(=O)N[C@@H](CC(=O)O)C(=O)N[C@@H](Cc1ccccc1)C(=O)N[C@@H](CC(C)C)C(=O)N[C@@H](CCCNC(=N)N)C(N)=O)[C@@H](C)CC)C(C)C)[C@@H](C)CC [II, C8^α-KR12-NH2] (Octanoyl-KRIVQRIKDFLR-NH2) | 4
* CCCCCCCC(=O)N[C@@H](CCCCN)C(=O)N[C@@H](CCCCN)C(=O)N[C@@H](CCCNC(=N)N)C(=O)N[C@H](C(=O)N[C@H](C(=O)N[C@@H](CCC(N)=O)C(=O)N[C@@H](CCCNC(=N)N)C(=O)N[C@H](C(=O)N[C@@H](CCCCN)C(=O)N[C@@H](CC(=O)O)C(=O)N[C@@H](Cc1ccccc1)C(=O)N[C@@H](CC(C)C)C(=O)N[C@@H](CCCNC(=N)N)C(N)=O)[C@@H](C)CC)C(C)C)[C@@H](C)CC [IV, C8^α-Lys-KR12-NH2] (Octanoyl-KKRIVQRIKDFLR-NH2) | 32

// below: MIC K. aerogenes requested for another molecule
### Prompt Which MIC K. aerogenes value belongs to CCCCCCCC(=O)NCCCC[C@H](NC(=O)[C@H](CCCNC(=N)N)NC(=O)[C@@H](NC(=O)[C@@H](NC(=O)[C@H](CCC(N)=O)NC(=O)[C@H](CCCNC(=N)N)NC(=O)[C@@H](NC(=O)[C@H](CCCCN)NC(=O)[C@H](CC(=O)O)NC(=O)[C@H](Cc1ccccc1)NC(=O)[C@H](CC(C)C)NC(=O)[C@@H](N)CCCNC(=N)N)[C@@H](C)CC)C(C)C)[C@@H](C)CC)C(N)=O [XI, retro-KR12-C8^ε-NH2] (H-RLFDKIRQVIRK(Octanoyl)-NH2) ?
### Response 512
